- Target or test system: Neuraminidase (Influenza A virus, UniProt B4URF0)
- Sequence (B4URF0 whole entry): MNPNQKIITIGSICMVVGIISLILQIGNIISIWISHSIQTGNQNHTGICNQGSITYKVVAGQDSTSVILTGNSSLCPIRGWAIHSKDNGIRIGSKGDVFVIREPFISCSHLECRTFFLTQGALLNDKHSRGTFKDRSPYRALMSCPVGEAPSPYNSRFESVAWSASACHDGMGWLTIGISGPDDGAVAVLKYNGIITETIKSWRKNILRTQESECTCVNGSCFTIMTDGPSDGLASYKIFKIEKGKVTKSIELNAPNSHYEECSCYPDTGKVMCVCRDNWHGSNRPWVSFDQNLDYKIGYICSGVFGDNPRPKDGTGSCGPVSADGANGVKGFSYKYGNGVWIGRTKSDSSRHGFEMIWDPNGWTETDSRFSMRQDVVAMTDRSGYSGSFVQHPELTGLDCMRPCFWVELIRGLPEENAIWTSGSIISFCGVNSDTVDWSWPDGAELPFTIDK
Entries and their measured IC50 follow.
Report as a plain number; the unit nM is understood.

{"columns": ["Mol", "Unit abbrev", "Observed"],
 "data": [
  ["CCOC(=O)C1=C[C@@H](OC(CC)CC)[C@H](NC(C)=O)[C@@H](NC(=N)N)C1", "nM", 0.5]
]}

// moving on: another record for IC50
Item: CCOC(=O)C1=C[C@@H](OC(CC)CC)[C@H](NC(C)=O)[C@@H](N)C1 Test system: Neuraminidase (Influenza A virus, UniProt B4URF0) Read-out: IC50 Value: ?
1
